# credit: patent US11535599B2

testedTarget: human Cav3.1 (Homo sapiens (Human), UniProt O43497)
Sequence (O43497 whole entry): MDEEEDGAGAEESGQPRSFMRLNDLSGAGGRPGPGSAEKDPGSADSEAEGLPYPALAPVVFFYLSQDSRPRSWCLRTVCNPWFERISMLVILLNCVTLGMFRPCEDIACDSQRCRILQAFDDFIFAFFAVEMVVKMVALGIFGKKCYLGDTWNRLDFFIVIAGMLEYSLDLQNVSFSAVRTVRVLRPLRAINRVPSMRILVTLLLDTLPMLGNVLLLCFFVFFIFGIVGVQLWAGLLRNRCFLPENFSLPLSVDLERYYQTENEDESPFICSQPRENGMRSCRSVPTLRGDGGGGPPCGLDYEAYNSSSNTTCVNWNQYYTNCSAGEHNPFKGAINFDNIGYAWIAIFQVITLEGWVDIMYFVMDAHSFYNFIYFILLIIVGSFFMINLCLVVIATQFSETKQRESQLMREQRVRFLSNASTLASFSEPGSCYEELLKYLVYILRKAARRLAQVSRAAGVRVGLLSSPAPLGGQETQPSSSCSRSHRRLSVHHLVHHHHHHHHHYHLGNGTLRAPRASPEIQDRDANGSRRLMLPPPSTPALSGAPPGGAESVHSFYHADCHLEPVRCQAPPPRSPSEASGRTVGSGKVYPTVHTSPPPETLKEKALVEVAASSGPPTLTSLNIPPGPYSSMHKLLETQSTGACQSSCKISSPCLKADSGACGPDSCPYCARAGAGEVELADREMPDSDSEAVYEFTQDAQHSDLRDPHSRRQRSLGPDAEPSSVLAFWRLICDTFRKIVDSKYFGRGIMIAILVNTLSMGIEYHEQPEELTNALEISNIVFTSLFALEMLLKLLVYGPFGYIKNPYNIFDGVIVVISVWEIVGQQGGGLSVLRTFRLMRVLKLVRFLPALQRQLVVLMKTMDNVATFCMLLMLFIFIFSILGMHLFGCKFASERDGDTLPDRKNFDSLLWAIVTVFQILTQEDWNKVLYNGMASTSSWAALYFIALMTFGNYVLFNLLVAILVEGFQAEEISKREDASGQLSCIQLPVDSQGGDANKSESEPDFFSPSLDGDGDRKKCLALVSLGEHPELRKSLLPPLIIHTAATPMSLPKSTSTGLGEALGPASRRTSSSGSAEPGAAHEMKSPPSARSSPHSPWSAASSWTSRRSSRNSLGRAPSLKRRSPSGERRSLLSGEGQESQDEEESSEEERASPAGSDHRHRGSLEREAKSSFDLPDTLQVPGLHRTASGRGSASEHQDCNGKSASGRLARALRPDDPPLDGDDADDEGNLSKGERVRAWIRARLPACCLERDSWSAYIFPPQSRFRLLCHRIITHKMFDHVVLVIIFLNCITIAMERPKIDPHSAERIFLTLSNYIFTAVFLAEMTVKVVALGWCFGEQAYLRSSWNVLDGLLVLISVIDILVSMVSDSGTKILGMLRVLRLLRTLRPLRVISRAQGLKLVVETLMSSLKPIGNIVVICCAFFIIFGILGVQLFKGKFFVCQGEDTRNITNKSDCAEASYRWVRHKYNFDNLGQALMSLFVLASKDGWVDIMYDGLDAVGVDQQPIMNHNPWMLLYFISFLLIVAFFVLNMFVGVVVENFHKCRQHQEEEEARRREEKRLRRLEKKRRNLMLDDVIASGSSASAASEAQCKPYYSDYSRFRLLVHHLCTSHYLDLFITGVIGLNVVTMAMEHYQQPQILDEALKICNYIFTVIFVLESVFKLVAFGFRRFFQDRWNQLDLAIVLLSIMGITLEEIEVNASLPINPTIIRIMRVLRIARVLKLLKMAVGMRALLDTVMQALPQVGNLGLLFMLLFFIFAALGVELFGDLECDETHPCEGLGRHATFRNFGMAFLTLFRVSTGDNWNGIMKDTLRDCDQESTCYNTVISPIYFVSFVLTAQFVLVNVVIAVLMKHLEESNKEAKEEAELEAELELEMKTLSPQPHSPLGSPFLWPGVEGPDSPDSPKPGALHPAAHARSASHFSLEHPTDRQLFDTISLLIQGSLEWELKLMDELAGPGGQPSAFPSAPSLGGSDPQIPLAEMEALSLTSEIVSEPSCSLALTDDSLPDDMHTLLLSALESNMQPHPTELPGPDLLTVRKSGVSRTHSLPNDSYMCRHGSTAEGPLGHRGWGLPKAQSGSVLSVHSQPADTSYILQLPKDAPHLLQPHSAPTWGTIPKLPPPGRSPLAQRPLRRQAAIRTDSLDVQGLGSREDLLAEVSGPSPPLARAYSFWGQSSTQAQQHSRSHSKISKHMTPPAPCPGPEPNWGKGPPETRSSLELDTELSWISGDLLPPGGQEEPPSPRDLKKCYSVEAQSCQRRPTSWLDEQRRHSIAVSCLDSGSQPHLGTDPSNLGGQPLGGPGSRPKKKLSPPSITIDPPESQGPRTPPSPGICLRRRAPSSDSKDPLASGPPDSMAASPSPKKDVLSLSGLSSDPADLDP
assayRemarks: T-type calcium channel inhibitory activity, whole-cell patch-clamp with HEK293 cell
statedConditions: dose-reactive test; read-out: Cav3.1 IC50 (parenthesized)
metricName: pIC50
Schema: pIC50 number; meaning minus log10 of the concentration expressed in molar units.

The cases that follow already have their pIC50 on record.
CC(F)(c1noc2ccccc12)S(N)(=O)=O (centres unmarked) [Example 8] has a reported pIC50 of 3.67

C[C@@H](c1noc2ccccc12)S(N)(=O)=O [Example 14] has a reported pIC50 of 3.26

CC(c1noc2ccccc12)S(N)(=O)=O (centres unmarked) [Example 1] has a reported pIC50 of 3.35

NS(=O)(=O)C(F)c1noc2ccccc12 (centres unmarked) [Example 3] has a reported pIC50 of 3.49

As a next step, examine the compound that follows.
C[C@H](c1noc2ccccc12)S(N)(=O)=O [Example 13] has a reported pIC50 of 3.33

----------
testedTarget: human Cav3.1 (Homo sapiens (Human))
assayRemarks: T-type calcium channel inhibitory activity, whole-cell patch-clamp with HEK293 cell
Assay type: cell-based
statedConditions: HEK293, 600 μmol/L; read-out: Cav3.1 % inhibitory rate
inhibition at 600 µM values by entry
Numeric answer only, unit % assumed.

The cases that follow already have their inhibition at 600 µM on record.
CC(F)(c1noc2ccccc12)S(N)(=O)=O (centres unmarked) [Example 8] has a reported inhibition at 600 µM of 83.1

C[C@H](c1noc2ccccc12)S(N)(=O)=O [Example 13] has a reported inhibition at 600 µM of 50.9

C[C@@H](c1noc2ccccc12)S(N)(=O)=O [Example 14] has a reported inhibition at 600 µM of 49.6

NS(=O)(=O)C1(c2noc3ccccc23)CC1 [Example 5] has a reported inhibition at 600 µM of 64.5

CC(c1noc2ccc(F)cc12)S(N)(=O)=O (centres unmarked) [Example 11] has a reported inhibition at 600 µM of 56

CC(C)C(c1noc2ccccc12)S(N)(=O)=O (centres unmarked) [Example 9] has a reported inhibition at 600 µM of 96.5

COc1ccc2onc(C(C)S(N)(=O)=O)c2c1 (centres unmarked) [Example 10] has a reported inhibition at 600 µM of 68.5

CC(C)(c1noc2ccccc12)S(N)(=O)=O [Example 2] has a reported inhibition at 600 µM of 72.7

Further cases:
NS(=O)(=O)C(F)c1noc2ccccc12 (centres unmarked) [Example 3] has a reported inhibition at 600 µM of 69.9

CC(c1noc2ccc(Cl)cc12)S(N)(=O)=O (centres unmarked) [Example 12] has a reported inhibition at 600 µM of 95

CCC(c1noc2ccccc12)S(N)(=O)=O (centres unmarked) [Example 6] has a reported inhibition at 600 µM of 80.4

----------
testedTarget: human Cav3.2 (Homo sapiens (Human))
Sequence (O95180 whole entry): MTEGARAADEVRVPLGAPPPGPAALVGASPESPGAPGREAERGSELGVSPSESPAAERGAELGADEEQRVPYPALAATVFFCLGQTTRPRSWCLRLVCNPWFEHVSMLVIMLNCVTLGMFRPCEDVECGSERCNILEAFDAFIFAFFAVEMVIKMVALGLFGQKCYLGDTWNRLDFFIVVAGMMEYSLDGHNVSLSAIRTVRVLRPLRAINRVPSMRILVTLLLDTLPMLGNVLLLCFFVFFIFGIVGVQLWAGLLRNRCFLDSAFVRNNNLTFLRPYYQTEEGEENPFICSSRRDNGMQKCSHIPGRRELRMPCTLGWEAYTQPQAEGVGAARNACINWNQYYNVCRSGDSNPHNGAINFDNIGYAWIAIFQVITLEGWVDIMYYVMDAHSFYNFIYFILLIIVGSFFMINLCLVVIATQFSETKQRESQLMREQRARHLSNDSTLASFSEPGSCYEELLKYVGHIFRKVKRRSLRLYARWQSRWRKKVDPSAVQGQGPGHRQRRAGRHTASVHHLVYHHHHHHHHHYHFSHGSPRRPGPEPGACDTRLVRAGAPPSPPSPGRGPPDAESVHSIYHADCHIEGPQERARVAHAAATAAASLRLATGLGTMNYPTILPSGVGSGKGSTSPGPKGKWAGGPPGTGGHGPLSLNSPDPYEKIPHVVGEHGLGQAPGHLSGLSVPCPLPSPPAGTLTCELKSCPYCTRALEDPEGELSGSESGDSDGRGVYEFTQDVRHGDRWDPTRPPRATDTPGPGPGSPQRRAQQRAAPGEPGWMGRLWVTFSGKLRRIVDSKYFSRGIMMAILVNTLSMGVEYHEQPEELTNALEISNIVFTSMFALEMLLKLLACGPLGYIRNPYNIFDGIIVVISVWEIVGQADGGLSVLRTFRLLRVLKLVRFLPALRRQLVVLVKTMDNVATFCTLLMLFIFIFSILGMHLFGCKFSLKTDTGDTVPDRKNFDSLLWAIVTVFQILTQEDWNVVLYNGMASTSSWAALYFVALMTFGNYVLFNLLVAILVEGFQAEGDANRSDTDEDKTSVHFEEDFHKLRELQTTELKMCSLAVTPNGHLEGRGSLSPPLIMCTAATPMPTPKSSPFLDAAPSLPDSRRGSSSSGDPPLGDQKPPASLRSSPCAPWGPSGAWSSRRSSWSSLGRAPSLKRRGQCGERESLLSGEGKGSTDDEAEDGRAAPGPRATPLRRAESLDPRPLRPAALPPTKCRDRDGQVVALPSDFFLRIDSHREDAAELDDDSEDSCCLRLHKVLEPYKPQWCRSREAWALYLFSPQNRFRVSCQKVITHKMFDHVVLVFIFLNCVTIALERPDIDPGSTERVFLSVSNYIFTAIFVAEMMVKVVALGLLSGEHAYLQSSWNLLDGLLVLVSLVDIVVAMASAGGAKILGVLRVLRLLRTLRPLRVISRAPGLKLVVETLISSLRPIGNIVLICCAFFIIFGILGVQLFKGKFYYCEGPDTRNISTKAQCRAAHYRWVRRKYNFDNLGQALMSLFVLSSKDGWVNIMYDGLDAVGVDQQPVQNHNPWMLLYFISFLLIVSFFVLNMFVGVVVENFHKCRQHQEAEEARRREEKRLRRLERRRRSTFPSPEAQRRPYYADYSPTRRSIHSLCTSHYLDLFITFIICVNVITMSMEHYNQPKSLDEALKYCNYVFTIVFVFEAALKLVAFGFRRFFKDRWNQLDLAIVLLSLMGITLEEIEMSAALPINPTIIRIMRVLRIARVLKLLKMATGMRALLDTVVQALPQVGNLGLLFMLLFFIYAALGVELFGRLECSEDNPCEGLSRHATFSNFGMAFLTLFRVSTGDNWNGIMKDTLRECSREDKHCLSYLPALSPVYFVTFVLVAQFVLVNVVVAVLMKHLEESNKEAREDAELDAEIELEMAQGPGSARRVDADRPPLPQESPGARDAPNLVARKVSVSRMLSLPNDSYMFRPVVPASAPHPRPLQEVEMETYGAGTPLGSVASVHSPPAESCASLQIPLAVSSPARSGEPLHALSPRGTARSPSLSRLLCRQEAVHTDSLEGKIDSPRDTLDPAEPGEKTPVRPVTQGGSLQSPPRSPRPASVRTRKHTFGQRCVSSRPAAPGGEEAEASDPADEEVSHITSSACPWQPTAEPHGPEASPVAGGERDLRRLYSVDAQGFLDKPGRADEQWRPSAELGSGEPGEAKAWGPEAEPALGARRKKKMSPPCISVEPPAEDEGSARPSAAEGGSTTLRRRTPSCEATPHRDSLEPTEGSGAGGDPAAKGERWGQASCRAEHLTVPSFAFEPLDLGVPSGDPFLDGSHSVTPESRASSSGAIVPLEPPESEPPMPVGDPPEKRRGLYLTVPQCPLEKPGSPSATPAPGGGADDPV
assayRemarks: T-type calcium channel inhibitory activity, whole-cell patch-clamp with HEK293 cell
Assay type: cell-based
statedConditions: HEK293, 600 μmol/L; read-out: Cav3.2 % inhibitory rate
inhibition at 600 µM values by entry
Numeric answer only, unit % assumed.

The cases that follow already have their inhibition at 600 µM on record.
NS(=O)(=O)C1(c2noc3ccccc23)CC1 [Example 5] has a reported inhibition at 600 µM of 54

CC(C)C(c1noc2ccccc12)S(N)(=O)=O (centres unmarked) [Example 9] has a reported inhibition at 600 µM of 96.9

CC(F)(c1noc2ccccc12)S(N)(=O)=O (centres unmarked) [Example 8] has a reported inhibition at 600 µM of 70.3

CC(C)(c1noc2ccccc12)S(N)(=O)=O [Example 2] has a reported inhibition at 600 µM of 64

CCC(c1noc2ccccc12)S(N)(=O)=O (centres unmarked) [Example 6] has a reported inhibition at 600 µM of 67.4

NS(=O)(=O)C(F)c1noc2ccccc12 (centres unmarked) [Example 3] has a reported inhibition at 600 µM of 64

C[C@@H](c1noc2ccccc12)S(N)(=O)=O [Example 14] has a reported inhibition at 600 µM of 33.8

CC(c1noc2ccc(Cl)cc12)S(N)(=O)=O (centres unmarked) [Example 12] has a reported inhibition at 600 µM of 91.5

Further cases:
CC(c1noc2ccc(F)cc12)S(N)(=O)=O (centres unmarked) [Example 11] has a reported inhibition at 600 µM of 50.8

COc1ccc2onc(C(C)S(N)(=O)=O)c2c1 (centres unmarked) [Example 10] has a reported inhibition at 600 µM of 57.7

C[C@H](c1noc2ccccc12)S(N)(=O)=O [Example 13] has a reported inhibition at 600 µM of 42.6
